- TARGET_UNDER_TEST: Lysine-specific demethylase 4E (Homo sapiens) (UniProt B2RXH2); further: nearly all actives have a fitted effect of over 50% in size; further: potency means the concentration at half of the fitted maximal effect
- TEST_METHOD_NOTES: qHTS Assay for Inhibitors of Human Jumonji Domain Containing 2E (JMJD2E)
- MEASUREMENT_PARAMETERS: JMJD2E catalytic domain, FDH-coupled NADH fluorescence (FDH is formaldehyde dehydrogenase); series mostly up to 57.1 µM
The whole screen tested about 230,000 compounds, of which about 3,600 (1.6%) were called active. About 15% were inconclusive and are not listed. The list comes from a sample in which actives are over-represented; it also holds close analogues and randomly drawn compounds.
MEASURE_NAME: Potency

O=C(O)c1ccc(NC(=O)c2cn(-c3ccccc3)nc2-c2ccc(Cl)cc2)cc1
inactive
COc1cccc(/C=N/NC(=O)c2[nH]nc3c2CCc2ccccc2-3)c1O
inactive
COc1cccc([C@@H]2Oc3ccc(Br)cc3C(=O)[C@H]2OC(=O)NCCc2ccc(OC)c(OC)c2)c1
14.1 µM (active)
CN(C(=O)CCn1c(=S)oc2ccccc21)C1CCCCC1
inactive
COc1cccc(/C=N\NC(=O)C2=NNC(=O)C2C)c1O (stereo not given)
7.08 µM (active)

Each molecule below has a recorded value; state its Potency.
1. O=C(Nc1cn(-c2ccccc2)nc1-c1ccccc1)c1ccccc1
2. COc1ccc(NS(=O)(=O)c2ccc(O)c(C(=O)OCC(=O)NC3CCCCC3)c2)cc1
3. Cc1cc(=O)[nH]c(=S)[nH]1
4. Oc1cccc(C2c3[nH]c4ccccc4c3CCN2Cc2cnn(-c3ccccc3)c2)c1 (stereo not given)
5. O=C(CS(=O)(=O)c1ccc(C(F)(F)F)cn1)NNC(=O)c1ccccc1

["inactive", "inactive", "inactive", "inactive", "inactive"]

Take each entry in turn and give its Potency.
1. O=C(NCc1nnc(SCC(=O)N2CCC(Cc3ccccc3)CC2)o1)c1ccco1
2. Cc1cc(C)cc(C(=O)NC2C(=O)N3C(C(=O)O)=C(CSc4nnc(C)s4)CSC23)c1 (stereo not given)
3. c1ccc(-n2cccc2)c(N2CCCCC2)c1

inactive
inactive
inactive
